tested on: Human immunodeficiency virus 2; assay: Concentration required to inhibit the viral (HIV-2 ROD) cytopathic effect by 50% in MT-4 cells.; type: functional, organism-based, MT4; conditions: Human immunodeficiency virus 2, MT4
readout-name: IC50

Cc1cc(C)cc(NN2C(S)=NC(C)C2c2ccccc2)c1 (configuration not stated) : > 194 µM
COC(=O)c1c(C)ncn1Nc1cccc(Cl)c1 : > 107 µM
CC(=O)c1ccc(C)cc1NC(C(N)=O)c1c(Cl)cccc1Cl (configuration not stated) [LOVIRIDE] : > 10 µM
CCc1ncn(Nc2cccc(C)c2)c1-c1ccccc1 : > 27.9 µM

From here, focus on the item given below.
Data request: IC50 lookup needed for CC1N=C(S)N(Nc2cccc(Cl)c2)C1C(=O)O (configuration not stated) , thanks.
Data returned: > 266 µM
